Molecular target: hCA VII (Homo sapiens)
Construct: gene CA7; recombinant, obtained in-house; cytosolic alpha-CA
Sequence (P43166 whole entry): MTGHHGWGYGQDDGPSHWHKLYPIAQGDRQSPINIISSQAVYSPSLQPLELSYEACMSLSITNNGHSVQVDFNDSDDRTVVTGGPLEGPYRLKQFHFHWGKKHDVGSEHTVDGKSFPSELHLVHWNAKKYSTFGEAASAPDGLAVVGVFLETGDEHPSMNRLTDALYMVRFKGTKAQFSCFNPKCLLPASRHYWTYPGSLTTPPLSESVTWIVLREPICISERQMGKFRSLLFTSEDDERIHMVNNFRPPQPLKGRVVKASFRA
Test: stopped-flow CO2 hydrase assay
Format: biochemical
Conditions: read-out: KI (nM) ^a / hCA VII (α-CA)
Source text: stopped-flow CO2 hydrase assay on hCA VII
Readout Kind: Ki (nM)
Number in nM, nothing else.

NS(=O)(=O)c1ccc(N2CC(=O)N(Cc3ccc(Cl)cc3)C2=O)cc1; 15.3
NS(=O)(=O)c1ccc(N2CC(=O)N(Cc3ccc([N+](=O)[O-])cc3)C2=O)cc1; 30.3
NS(=O)(=O)c1ccc(N2CC(=O)N(Cc3ccc(OC(F)(F)F)cc3)C2=O)cc1; 22.4

// field: Ki; key: CCCCCCCN1C(=O)CN(c2ccc(S(N)(=O)=O)cc2)C1=O ; value = 187

// field: Ki; key: NS(=O)(=O)c1ccc(N2CC(=O)N(Cc3ccc(Cl)c(Cl)c3)C2=O)cc1 ; value = 133

// field: Ki; key: Cc1cccc(CN2C(=O)CN(c3ccc(S(N)(=O)=O)cc3)C2=O)c1 ; value = 18.8

// field: Ki; key: C=CCN1C(=O)CN(c2ccc(S(N)(=O)=O)cc2)C1=O ; value = 19.5

// field: Ki; key: Cc1ccc(CN2C(=O)CN(c3ccc(S(N)(=O)=O)cc3)C2=O)cc1 ; value = 3

// field: Ki; key: N#Cc1ccc(CN2C(=O)CN(c3ccc(S(N)(=O)=O)cc3)C2=O)cc1 ; value = 12

// field: Ki; key: CCN1C(=O)CN(c2ccc(S(N)(=O)=O)cc2)C1=O ; value = 30.8

// field: Ki; key: NS(=O)(=O)c1ccc(N2CC(=O)NC2=O)cc1 ; value = 61.4

// field: Ki; key: NS(=O)(=O)c1ccc(N2CC(=O)N(Cc3ccccc3F)C2=O)cc1 ; value = 12.7

// field: Ki; key: NS(=O)(=O)c1ccc(N2CC(=O)N(Cc3ccccc3)C2=O)cc1 ; value = 5.3

// field: Ki; key: NS(=O)(=O)c1ccc(N2CC(=O)N(Cc3c(F)c(F)c(F)c(F)c3F)C2=O)cc1 ; value = 16.9

// field: Ki; key: NS(=O)(=O)c1ccc(N2CC(=O)N(Cc3ccc(C(F)(F)F)cc3)C2=O)cc1 ; value = 14.3

###

Ki overview
Molecular target: hCA II (Homo sapiens, UniProt P00918)
Construct: gene CA2; recombinant, obtained in-house; cytosolic alpha-CA
Assay: stopped-flow CO2 hydrase assay
Assay type: biochemical
Conditions: read-out: KI (nM) ^a / hCA II (α-CA)

// field: Ki; key: NS(=O)(=O)c1ccc(N2CC(=O)N(Cc3ccc(Cl)c(Cl)c3)C2=O)cc1 [8m] ; value = 85.6 nM

###

Biological target: hCA I (Homo sapiens, UniProt P00915)
Construct: gene CA1; recombinant, obtained in-house; cytosolic alpha-CA
Sequence (P00915 2-261): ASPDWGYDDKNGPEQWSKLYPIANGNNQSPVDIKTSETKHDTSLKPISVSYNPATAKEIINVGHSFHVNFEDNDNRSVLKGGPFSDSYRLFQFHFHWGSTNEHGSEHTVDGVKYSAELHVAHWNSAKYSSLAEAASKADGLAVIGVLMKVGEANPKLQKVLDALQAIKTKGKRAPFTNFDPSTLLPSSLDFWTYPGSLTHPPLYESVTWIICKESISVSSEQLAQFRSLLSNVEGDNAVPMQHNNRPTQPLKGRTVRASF
Test: stopped-flow CO2 hydrase assay
Assay type: biochemical
Settings: read-out: KI (nM) ^a / hCA I (α-CA)
Excerpt: stopped-flow CO2 hydrase assay on hCA I
Readout Kind: log10 Ki (log10 of the value in nM)
Kindly note that the scale is log10 and the underlying Ki is in nM.

NS(=O)(=O)c1ccc(N2CC(=O)N(Cc3ccc(OC(F)(F)F)cc3)C2=O)cc1; 2.63

// field: log10 Ki; key: NS(=O)(=O)c1ccc(N2CC(=O)N(Cc3ccccc3)C2=O)cc1 ; value = 2.92

// field: log10 Ki; key: NS(=O)(=O)c1ccc(N2CC(=O)N(Cc3ccccc3F)C2=O)cc1 ; value = 2.65

// field: log10 Ki; key: NS(=O)(=O)c1ccc(N2CC(=O)N(Cc3ccc(Cl)cc3)C2=O)cc1 ; value = 3.94

// field: log10 Ki; key: Cc1cccc(CN2C(=O)CN(c3ccc(S(N)(=O)=O)cc3)C2=O)c1 ; value = 3.03

// field: log10 Ki; key: CCN1C(=O)CN(c2ccc(S(N)(=O)=O)cc2)C1=O ; value = 2.42

// field: log10 Ki; key: NS(=O)(=O)c1ccc(N2CC(=O)N(Cc3ccc(Cl)c(Cl)c3)C2=O)cc1 ; value = 2.84

// field: log10 Ki; key: NS(=O)(=O)c1ccc(N2CC(=O)N(Cc3c(F)c(F)c(F)c(F)c3F)C2=O)cc1 ; value = 2.62

// field: log10 Ki; key: CCCCCCCN1C(=O)CN(c2ccc(S(N)(=O)=O)cc2)C1=O ; value = 2.87

// field: log10 Ki; key: Cc1ccc(CN2C(=O)CN(c3ccc(S(N)(=O)=O)cc3)C2=O)cc1 ; value = 3.47

// field: log10 Ki; key: NS(=O)(=O)c1ccc(N2CC(=O)N(Cc3ccc([N+](=O)[O-])cc3)C2=O)cc1 ; value = 2.82

// field: log10 Ki; key: N#Cc1ccc(CN2C(=O)CN(c3ccc(S(N)(=O)=O)cc3)C2=O)cc1 ; value = 2.76

// field: log10 Ki; key: NS(=O)(=O)c1ccc(N2CC(=O)N(Cc3ccc(C(F)(F)F)cc3)C2=O)cc1 ; value = 2.78

// field: log10 Ki; key: C=CCN1C(=O)CN(c2ccc(S(N)(=O)=O)cc2)C1=O ; value = 2.37

// field: log10 Ki; key: NS(=O)(=O)c1ccc(N2CC(=O)NC2=O)cc1 ; value = 2.70
